Source listed as paper PMC4965148.

# test_method_notes: Plasma and brain concentrations after dosing
# Type: in vivo, rat
# experimental_setup: rat, plasma, sc, 0.01 mg/kg, Rat MMN; 0.01 mg/kg sc; 30 min; read-out: Plasma Mean ± SD
assay_endpoint: concentration at 30 min (nM)
// units = nM; emit number, no label

# lookup: concentration at 30 min of c1cn(-c2cc(NC3=NC[C@@]4(CN5CCC4CC5)O3)ncn2)cn1 [BMS-933043]
2.4

---

# target_entity: HEK293/Human α7 nAChR (Homo sapiens)
# test_method_notes: [3H]-A-585539 filtration binding
# Design: expressed in transfected cells
# experimental_setup: read-out: HEK293/human α7 nAChR Ki (individual)
assay_endpoint: Ki
Mention the unit after the number when you answer.

Which Ki is reported with HEK293/Human α7 nAChR (Homo sapiens) for this entry: "c1cn(-c2cc(NC3=NC[C@@]4(CN5CCC4CC5)O3)ncn2)cn1" ?
8.1 nM

---

# test_method_notes: Plasma and brain concentrations after dosing
# Format: in vivo, mouse
# experimental_setup: mouse, plasma, subcutaneous, 1 mg/kg, Mouse NOR (1-10 mg/kg study); 1 mg/kg sc; 30 min; read-out: Plasma Mean ± SD
assay_endpoint: concentration at 30 min (µM)
Write the answer as a number in µM, unit excluded.

Which concentration at 30 min is listed for "c1cn(-c2cc(NC3=NC[C@@]4(CN5CCC4CC5)O3)ncn2)cn1" ?
0.459

---

# test_method_notes: Plasma and brain concentrations after dosing
# Format: in vivo, rat
# experimental_setup: rat, plasma, oral, 1 mg/kg, Rat MK-801 Set Shift (0.3-3 mg/kg study); 1 mg/kg po; 150 min; read-out: Plasma Mean ± SD
assay_endpoint: concentration at 150 min (nM)
Numbers only here, please. The scale is nM.

Give the measured concentration at 150 min of "c1cn(-c2cc(NC3=NC[C@@]4(CN5CCC4CC5)O3)ncn2)cn1" .
50

---

# target_entity: HEK293/Human α7 nAChR (Homo sapiens, UniProt P36544)
# Sequence (P36544 23-502): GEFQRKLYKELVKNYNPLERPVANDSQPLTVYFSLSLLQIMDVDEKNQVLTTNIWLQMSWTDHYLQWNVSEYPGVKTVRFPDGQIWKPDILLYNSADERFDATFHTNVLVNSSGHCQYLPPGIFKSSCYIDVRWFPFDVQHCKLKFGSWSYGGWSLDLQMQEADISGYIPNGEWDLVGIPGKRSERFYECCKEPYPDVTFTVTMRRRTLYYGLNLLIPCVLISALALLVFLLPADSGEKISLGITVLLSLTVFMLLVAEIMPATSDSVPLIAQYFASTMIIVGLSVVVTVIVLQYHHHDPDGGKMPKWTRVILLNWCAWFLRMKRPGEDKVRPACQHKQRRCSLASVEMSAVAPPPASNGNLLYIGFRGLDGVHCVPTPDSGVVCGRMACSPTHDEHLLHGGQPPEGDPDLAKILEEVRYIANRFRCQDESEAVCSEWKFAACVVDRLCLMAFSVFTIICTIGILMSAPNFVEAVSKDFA
# test_method_notes: [3H]-A-585539 filtration binding
# Design: expressed in transfected cells
# experimental_setup: HEK293/Human α7 nAChR Mean ± SD Ki
assay_endpoint: Ki

Which Ki is reported with HEK293/Human α7 nAChR (Homo sapiens, UniProt P36544) for this entry: c1cn(-c2cc(NC3=NC[C@@]4(CN5CCC4CC5)O3)ncn2)cn1 [BMS-933043] ?
8 nM

New cases:
Query Ki on HEK293/Human α7 nAChR (Homo sapiens, UniProt P36544) for CN1CC2CN(c3ccc(-c4ccccc4)nn3)CC2C1.Cl.Cl (centres unmarked) [A-582941]
82.6 nM

---

# test_method_notes: Plasma and brain concentrations after dosing
# Assay type: in vivo, mouse
# experimental_setup: mouse, plasma, subcutaneous, 1 mg/kg, Mouse NOR (0.03-1 mg/kg study); 1 mg/kg sc; 30 min; read-out: Plasma Mean ± SD
assay_endpoint: concentration at 30 min (nM)
Write it as a number; the unit nM goes unstated.

What concentration at 30 min value was documented for this compound, "c1cn(-c2cc(NC3=NC[C@@]4(CN5CCC4CC5)O3)ncn2)cn1" ?
719

---

# target_entity: rat α4β2 nAChR (Rattus norvegicus, UniProt P09483+P12390)
# Construct: expressed in transfected cells; host or cells: HEK293 (made by Bristol-Myers Squibb)
# Sequence (P09483 31-630): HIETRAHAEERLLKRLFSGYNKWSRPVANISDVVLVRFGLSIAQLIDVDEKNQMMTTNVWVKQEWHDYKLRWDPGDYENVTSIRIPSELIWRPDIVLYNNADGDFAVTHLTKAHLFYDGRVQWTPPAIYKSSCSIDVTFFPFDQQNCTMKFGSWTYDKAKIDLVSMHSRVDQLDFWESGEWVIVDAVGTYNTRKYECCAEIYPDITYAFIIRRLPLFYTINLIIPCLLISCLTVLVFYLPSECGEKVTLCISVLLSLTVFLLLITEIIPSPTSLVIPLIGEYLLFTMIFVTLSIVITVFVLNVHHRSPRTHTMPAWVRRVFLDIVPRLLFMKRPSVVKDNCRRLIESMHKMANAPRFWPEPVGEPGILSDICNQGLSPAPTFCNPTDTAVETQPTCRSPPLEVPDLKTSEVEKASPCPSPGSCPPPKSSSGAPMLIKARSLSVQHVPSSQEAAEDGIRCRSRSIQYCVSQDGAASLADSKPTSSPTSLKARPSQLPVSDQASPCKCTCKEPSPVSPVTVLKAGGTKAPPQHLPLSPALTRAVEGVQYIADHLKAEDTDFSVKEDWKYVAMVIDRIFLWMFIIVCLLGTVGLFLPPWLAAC
# Sequence (P12390 25-500): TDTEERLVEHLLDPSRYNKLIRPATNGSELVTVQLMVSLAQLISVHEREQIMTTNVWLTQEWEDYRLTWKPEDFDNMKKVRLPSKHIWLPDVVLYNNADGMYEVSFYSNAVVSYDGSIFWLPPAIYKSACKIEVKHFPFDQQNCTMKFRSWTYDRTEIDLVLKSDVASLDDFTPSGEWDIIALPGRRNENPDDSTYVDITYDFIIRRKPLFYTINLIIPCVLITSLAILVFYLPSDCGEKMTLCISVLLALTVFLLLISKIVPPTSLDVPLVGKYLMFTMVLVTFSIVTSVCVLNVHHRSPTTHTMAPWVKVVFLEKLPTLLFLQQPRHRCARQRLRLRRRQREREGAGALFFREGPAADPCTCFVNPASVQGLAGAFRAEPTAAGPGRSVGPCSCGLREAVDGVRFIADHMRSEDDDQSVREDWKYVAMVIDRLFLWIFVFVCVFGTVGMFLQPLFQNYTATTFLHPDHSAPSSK
# test_method_notes: Ca2+ flux (FLIPR) agonist/antagonist assay
# Type: cell-based
assay_endpoint: EC50

Given O=C(N[C@@H]1C2CCN(CC2)[C@H]1Cc1cccnc1)c1cc2ccccc2o1 [TC-5619] , state its recorded EC50.
> 100 µM

---

# test_method_notes: Plasma and brain concentrations after dosing
# Assay type: in vivo, rat
# experimental_setup: rat, brain/plasma, sc, 1 mg/kg, Rat MMN; 1 mg/kg sc; 30 min
assay_endpoint: Kp at 30 min
Output spec: single numeric token, no unit.

Recorded Kp at 30 min of c1cn(-c2cc(NC3=NC[C@@]4(CN5CCC4CC5)O3)ncn2)cn1 [BMS-933043] , please.
0.19

---

# target_entity: UniProt P18825
# Sequence (P18825 1-462): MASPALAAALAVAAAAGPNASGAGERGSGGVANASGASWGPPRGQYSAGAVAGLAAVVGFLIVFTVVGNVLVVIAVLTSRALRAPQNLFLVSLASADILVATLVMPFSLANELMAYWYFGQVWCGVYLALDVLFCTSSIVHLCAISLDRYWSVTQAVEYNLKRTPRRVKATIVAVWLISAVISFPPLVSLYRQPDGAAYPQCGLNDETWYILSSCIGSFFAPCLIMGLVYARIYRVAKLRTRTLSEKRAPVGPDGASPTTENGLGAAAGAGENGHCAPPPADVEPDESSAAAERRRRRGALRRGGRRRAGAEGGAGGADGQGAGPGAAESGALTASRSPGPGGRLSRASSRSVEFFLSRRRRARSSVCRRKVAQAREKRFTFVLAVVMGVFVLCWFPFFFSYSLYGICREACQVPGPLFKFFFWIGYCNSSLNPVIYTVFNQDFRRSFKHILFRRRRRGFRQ
assay_endpoint: IC50

Can you share its IC50? I mean this compound: c1cn(-c2cc(NC3=NC[C@@]4(CN5CCC4CC5)O3)ncn2)cn1 [BMS-933043]
> 30 µM

---

# test_method_notes: Plasma and brain concentrations after dosing
# Format: in vivo, mouse
# experimental_setup: mouse, brain/plasma, subcutaneous, mice; read-out: average brain/plasma
assay_endpoint: Kp
Could you keep your reply to the number by itself?

What Kp value was documented for this compound, "c1cn(-c2cc(NC3=NC[C@@]4(CN5CCC4CC5)O3)ncn2)cn1" ?
0.17

---

# test_method_notes: Plasma and brain concentrations after dosing
# Assay type: in vivo, rat
# experimental_setup: rat, brain/plasma, oral, 3 mg/kg, Rat MK-801 Set Shift (3-30 mg/kg study); 3 mg/kg po; 150 min
assay_endpoint: Kp at 150 min
Format: numeric value only, no unit, no commentary.

What does the data say about its Kp at 150 min? Entry: c1cn(-c2cc(NC3=NC[C@@]4(CN5CCC4CC5)O3)ncn2)cn1 [BMS-933043]
0.29

---

# target_entity: 5-HT2A (Homo sapiens, UniProt P28223)
# Sequence (P28223 whole entry): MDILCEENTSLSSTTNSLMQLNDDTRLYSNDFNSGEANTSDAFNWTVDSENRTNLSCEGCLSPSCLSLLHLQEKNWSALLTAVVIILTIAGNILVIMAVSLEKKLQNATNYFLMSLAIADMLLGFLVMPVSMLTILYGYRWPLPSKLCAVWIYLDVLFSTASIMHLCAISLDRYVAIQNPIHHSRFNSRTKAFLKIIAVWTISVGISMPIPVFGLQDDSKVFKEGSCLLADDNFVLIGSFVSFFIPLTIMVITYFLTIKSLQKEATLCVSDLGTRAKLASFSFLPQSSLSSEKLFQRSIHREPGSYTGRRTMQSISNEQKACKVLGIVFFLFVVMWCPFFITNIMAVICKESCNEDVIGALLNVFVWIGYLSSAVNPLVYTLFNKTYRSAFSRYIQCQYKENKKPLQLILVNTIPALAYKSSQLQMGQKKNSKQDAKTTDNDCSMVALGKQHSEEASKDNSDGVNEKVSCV
# test_method_notes: Selectivity panel, functional
assay_endpoint: EC50

Form field: reported EC50 of c1cn(-c2cc(NC3=NC[C@@]4(CN5CCC4CC5)O3)ncn2)cn1 [BMS-933043]
> 10 µM

---

# test_method_notes: Plasma and brain concentrations after dosing
# Assay type: in vivo, mouse
# experimental_setup: mouse, brain/plasma; NS-6740 0.3 mg/kg sc; mice; read-out: Brain/Plasma Ratio
# Protocol: Occupancy determinations were made either on completion of behavioral testing or in satellite groups of animals dosed in parallel with behavioral testing. […] Bound radioactivity was measured using a Wallac Microbeta liquid scintillation counter. Specific binding was calculated by subtracting the value of the non-specific binding from that of the total binding in each sample. […]
assay_endpoint: Kp

Query (compound): O=C(c1ccc(-c2cccc(C(F)(F)F)c2)o1)N1CCN2CCC1CC2 [NS-6740] ; field requested: Kp
8.54

---

# test_method_notes: Plasma and brain concentrations after dosing
# Assay type: in vivo, rat
# experimental_setup: rat, brain, oral, 10 mg/kg, Rat MK-801 Set Shift (3-30 mg/kg study); 10 mg/kg po; 150 min; read-out: Brain Mean ± SD
assay_endpoint: concentration at 150 min

Param item = "c1cn(-c2cc(NC3=NC[C@@]4(CN5CCC4CC5)O3)ncn2)cn1" ; retrieve measured concentration at 150 min.
533 nM

---

# test_method_notes: Plasma and brain concentrations after dosing
# Format: in vivo, mouse
# experimental_setup: mouse, brain/plasma; NS-6740 10 mg/kg sc; mice; read-out: Brain/Plasma Ratio
assay_endpoint: Kp
When you answer, write just the number.

Endpoint output: Kp of "O=C(c1ccc(-c2cccc(C(F)(F)F)c2)o1)N1CCN2CCC1CC2" . Value?
8.51

---

# test_method_notes: Plasma and brain concentrations after dosing
# Type: in vivo, rat
# experimental_setup: rat, brain, sc, 1 mg/kg, Rat MMN; 1 mg/kg sc; 30 min; read-out: Brain Mean ± SD
assay_endpoint: concentration at 30 min (nM)
Entry rule: numbers only, all in nM.

Tell me the measured concentration at 30 min of "c1cn(-c2cc(NC3=NC[C@@]4(CN5CCC4CC5)O3)ncn2)cn1" , please.
74

---

# test_method_notes: Plasma and brain concentrations after dosing
# Format: in vivo, rat
# experimental_setup: rat, brain, oral, 3 mg/kg, Rat MK-801 Set Shift (3-30 mg/kg study); 3 mg/kg po; 150 min; read-out: Brain Mean ± SD
assay_endpoint: concentration at 150 min (nM)
# value in nM; strip the unit string

If you can, please state the reported concentration at 150 min value of c1cn(-c2cc(NC3=NC[C@@]4(CN5CCC4CC5)O3)ncn2)cn1 [BMS-933043] .
132
